Test: Pharmacokinetic study in cynomolgus monkeys after oral (nasogastric) gavage, sublingual and intravenous administration
Assay type: in vivo
Conditions: cynomolgus monkey, plasma, other: sublingual, 5 mg/kg, Plasma Bumetanide Dibenzylamide concentration, Median, monkey, SL, dose column 5 mg/kg (title 30 mg/kg), Fourth Formulation (Form 2), 32.0 h, N=4
Protocol: A pharmacokinetic study was done in cynomolgus monkeys following single oral (nasogastric) gavage, sublingual, and intravenous administration. […] Calibration curves, blanks, and analytical QCs were prepared in monkey plasma (K2EDTA). The extracts were evaporated to dryness, reconstituted, and then analyzed by LC-MS/MS. The calibration range was 0.250-250 ng/mL for both analytes. If the criteria for either the calibration curve or the analytical QCs were not met, the analytical run was rejected. […]
parameter: concentration at 32 h (ng/mL)
Express it in ng/mL; write the number only.

-- ask What measured concentration at 32 h goes with CCCCNc1cc(C(=O)N(Cc2ccccc2)Cc2ccccc2)cc(S(N)(=O)=O)c1Oc1ccccc1 [Bumetanide Dibenzylamide] ?
-- reply 0
